Biological target: WT HIV-1 protease (Human immunodeficiency virus type 1 group M subtype B (isolate HXB2) (HIV-1))
Assay: Assay for inhibition of microbial expressed HIV protease (Procedure A, peptide substrate, HPLC fluorescence detection)
Conditions: WT HIV-1 protease 10 pM, substrate 400 micromolar, pH 5.5, 30 min preincubation, 1 hour at 30° C.; read-out: Enzyme inhibition IC50
measurement label: IC50 (nM)
Write the answer as a number in nM, unit excluded.

compound: CC(C)CN(C(CO)c1ccc(CNC(=O)C(NC(=O)c2ccccc2)C(c2ccccc2)c2c[nH]nc2-c2ccccc2)s1)S(=O)(=O)c1ccc2ncsc2c1 (stereo not shown) [Example 130]
IC50, nM: 952
--
compound: COC(=O)N[C@H](C(=O)NCc1ccc([C@@H](CO)N(Cc2cnon2)S(=O)(=O)c2ccc(N)cc2)s1)C(c1ccccc1)c1ccccc1 [Example 19]
IC50, nM: 33.8
--
compound: COC(=O)Nc1ccc(S(=O)(=O)N(CCC(C)(C)C)[C@H](CO)c2ccc([C@@H](NC(=O)[C@@H](NC(=O)OC)C(c3ccccc3)c3ccccc3)C(F)(F)F)s2)cc1 [Example 70]
IC50, nM: 3.16
--
compound: COC(=O)N[C@H](C(=O)NCc1ccc([C@@H](CO)N(C(C)C)S(=O)(=O)c2ccc(N)cc2)s1)C(c1ccccc1)c1ccccc1 [Example 12]
IC50, nM: 18.8

# evaluate next
Input: For the compound shown here, COC(=O)N[C@H](C(=O)N[C@H](c1ccc([C@@H](CO)N(CCC(C)(C)C)S(=O)(=O)c2ccc3[nH]ncc3c2)s1)C(F)(F)F)C(c1ccccc1)c1ccccc1 [Example 93] , give the reported IC50.
Output: 0.31

----------
Target: WT HIV-1 protease (Human immunodeficiency virus type 1 group M subtype B (isolate HXB2) (HIV-1))
Assay: Assay for inhibition of microbial expressed HIV protease (Procedure A, peptide substrate, HPLC fluorescence detection)
Settings: WT HIV-1 protease 10 pM, substrate 400 micromolar, pH 5.5, 30 min preincubation, 1 hour at 30° C.; read-out: Enzyme inhibition IC50
IC50 by entry:
Write the answer as a number in nM, unit excluded.

// solved cases for IC50 follow
molecule: COC(=O)N[C@H](C(=O)N[C@H](c1ccc([C@@H](CO)NS(=O)(=O)c2ccc(N)cc2)s1)C(F)(F)F)C(c1ccccc1)c1ccccc1
measured number: 194

molecule: COC(=O)N[C@H](C(=O)N[C@H](c1ccc([C@@H](CO)N(CCC(C)(C)C)S(=O)(=O)c2ccc3cc[nH]c3c2)s1)C(F)(F)F)C(c1ccccc1)c1ccccc1
measured number: 0.09

molecule: COC(=O)N[C@H](C(=O)N[C@H](c1ccc([C@@H](CO)N(CCC(C)(C)C)S(=O)(=O)c2ccc(-c3cnco3)cc2)s1)C(F)(F)F)C(c1ccccc1)c1ccccc1
measured number: 25.9

Input: For the molecule shown here, [2H]C([2H])([2H])C(N([C@H](CO)c1ccc([C@@H](NC(=O)[C@@H](NC(=O)OC)C(c2ccccc2)c2ccccc2)C(F)(F)F)s1)S(=O)(=O)c1ccc(N)cc1)C([2H])([2H])[2H] , give the reported IC50.
Output: 33.7

Input: For the molecule shown here, COC(=O)N[C@H](C(=O)N[C@H](c1ccc([C@@H](CO)N(CCC(C)(C)C)S(=O)(=O)c2ccc(CO)cc2)s1)C(F)(F)F)C(c1ccccc1)c1ccccc1 , give the reported IC50.
Output: 0.156

Input: For the molecule shown here, COC(=O)N[C@H](C(=O)NCc1ccc(C(CO)N(CCC(C)C)S(=O)(=O)c2ccccc2)s1)C(c1ccccc1)c1ccccc1 (stereo partly drawn) , give the reported IC50.
Output: 8.81
